test system: PPARg:RXRa IVT, anti-PPARg (NR concentration 270 nM, RXRa partner concentration 90 nM); assay: PBM binding z-score (relative to random genomic background probes); higher = stronger binding; sequences stand for … in GC…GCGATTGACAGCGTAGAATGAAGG
# binarize PBM binding z-score: threshold 3 inclusive, high side yes (1), low side no (0)

input: Is PBM binding z-score for CCTTACGGGTCAAGGCTATAGCACGGGTGGTACG at or above 3?
output: yes (1)

input: Is PBM binding z-score for CGTCCATGGTCAGCAGGTCAGTGAAAGCGACGTG at or above 3?
output: no (0)

input: Is PBM binding z-score for CTACCACGGTGAACAAGGTCGTTGATTACTATTC at or above 3?
output: no (0)

input: Is PBM binding z-score for CGTCCCAGGTCAGCAGGTCAGTGAAAGCGACGTG at or above 3?
output: no (0)

input: Is PBM binding z-score for TAGCCTAGGTCATGGGCCAGGATACCACGCGAAC at or above 3?
output: yes (1)

Further cases:
input: Is PBM binding z-score for CTCGAAAGGTTGTGCTCAGGTGAGTATACCAAAC at or above 3?
output: no (0)

input: Is PBM binding z-score for CCTACTGGGCCACGAAAGGTCATTAATTCAGTGA at or above 3?
output: yes (1)

input: Is PBM binding z-score for TTACCAAGGTGAGCTGAGGTCGTAGATCCAACTC at or above 3?
output: no (0)

input: Is PBM binding z-score for AGCTCTAGGTAACCAAGTTCAGTGAATGCCGAAC at or above 3?
output: no (0)

input: Is PBM binding z-score for TCATATAGGTAATACAGATGAAAGTCGGCATCTA at or above 3?
output: no (0)

input: Is PBM binding z-score for AGAACGAGAGCACGCTGAGTTGATAGCAGAGTAG at or above 3?
output: no (0)

input: Is PBM binding z-score for CTCGAAAGGTCGCTTGAGGTGAGTATACGGATAA at or above 3?
output: no (0)

input: Is PBM binding z-score for AGAATAAGGTTATTAAGATCAGGGAATTGCGGTC at or above 3?
output: no (0)

input: Is PBM binding z-score for AGAATGAGGTTATTAAGATTAGGGAATTGCGGTC at or above 3?
output: no (0)

input: Is PBM binding z-score for CAAACTAGGTCAAGAAGTCAAAGTCCGCTTCCCG at or above 3?
output: yes (1)

input: Is PBM binding z-score for AGAACGAGGGCACGCTGAGTTGATAGTAGAGTAG at or above 3?
output: yes (1)

input: Is PBM binding z-score for CAAACTAGGTCACAGGTCAAAGTCGAGCCAACCA at or above 3?
output: yes (1)

input: Is PBM binding z-score for CCAGACAGGTGAGAAGGTAACTCCGCCTCGATTA at or above 3?
output: no (0)

input: Is PBM binding z-score for ACTAGTTGGTCAGCTAAGGTCACACACAATTCGG at or above 3?
output: no (0)

input: Is PBM binding z-score for CAAACTAGGTCAAAAGTCAAAGTCGAGCCAACCA at or above 3?
output: yes (1)

input: Is PBM binding z-score for CCTCGGAGGAAAACAGGAGGTCAGAGCTGCCAGA at or above 3?
output: no (0)

###

test system: RARb:RXRa (NR concentration 270 nM, RXRa partner concentration 90 nM); experiment: PBM binding z-score (relative to random genomic background probes); higher = stronger binding; sequences stand for … in GC…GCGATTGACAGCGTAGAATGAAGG
# binarize PBM binding z-score: threshold 3 inclusive, high side criterion met, low side criterion not met

Worked cases, answers included:
input: Is PBM binding z-score for AGTATTAGTTGACTTAGGGCAACCGATACGACGC at or above 3?
output: criterion not met

input: Is PBM binding z-score for CAAACTAGGTAAAGGTCAAAGTCGGTTTGTGCCA at or above 3?
output: criterion met

input: Is PBM binding z-score for ATCGAAAGGTCGACGATGTGAGTATACACCGTTT at or above 3?
output: criterion met

input: Is PBM binding z-score for GCAACTGGGGCAAAGCAGGTTACCATAAGGTTGG at or above 3?
output: criterion not met

input: Is PBM binding z-score for ATATGTAGGTTAAGGGTCAATCAGGTTGGTTCGC at or above 3?
output: criterion met

input: Is PBM binding z-score for CCTTGGAGGACAGAAGGTCAGAGCTGTCCGCTTT at or above 3?
output: criterion met

Further cases:
input: Is PBM binding z-score for CCTAACGGGTCACTCCAGGTTATAGCATCGGAGT at or above 3?
output: criterion met

input: Is PBM binding z-score for CCTGCTGGGTCATGGTCAGCTAATCTACAGTATG at or above 3?
output: criterion met

input: Is PBM binding z-score for CGATCTAGGTCATTGACAGGACAGTGAATAGTAA at or above 3?
output: criterion met

input: Is PBM binding z-score for ATATGTAGCTTACATCCGGGTCATTCAGGCTATG at or above 3?
output: criterion not met

input: Is PBM binding z-score for TCTATTAGTTGATTAGGGTAACCGAAACAGCGGA at or above 3?
output: criterion not met

input: Is PBM binding z-score for GATACAGGGTCAGCTAGAGGCCAGAATATGGAAA at or above 3?
output: criterion met

input: Is PBM binding z-score for ACTATTAGTTGAGACGAGGGCAACCAATAGGTTG at or above 3?
output: criterion not met

input: Is PBM binding z-score for ACTAGTTGGTCAGCTGAGTTCACACACAATTCGG at or above 3?
output: criterion not met

input: Is PBM binding z-score for CAAACTAGTTCACGAAAGGTCAAAGTCGAATGAC at or above 3?
output: criterion met

input: Is PBM binding z-score for AATACAGGGTCATCGTAAGCCAGAGTACGCACAG at or above 3?
output: criterion met

input: Is PBM binding z-score for CCTACTGGGCGAAAAAGGTCATTGATGCCGATAA at or above 3?
output: criterion met

###

system: PPARg DBDmut:RXRa IVT, anti-PPARg (DBD mutation: PPARg1 K132A/R137A, NR concentration 270 nM, RXRa partner concentration 90 nM); assay: PBM binding z-score (relative to random genomic background probes); higher = stronger binding; sequences stand for … in GC…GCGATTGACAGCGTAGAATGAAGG
Property: PBM binding z-score; scope: individual sequences
Give your answer as a number; write no unit.

input: Field request: PBM binding z-score | item: CAAGCTAGGTCAAGGTCAAAGTCGGTTTGTGCCA
output: -0.662

input: Field request: PBM binding z-score | item: ATCGTAAGGTCGAAGGTGAGTATACCCACCCGAA
output: 1.22

input: Field request: PBM binding z-score | item: CAAACTAGGTCACCGGAAGGTCACAGTCCGCATG
output: 2.66

input: Field request: PBM binding z-score | item: CGTCCAAGGTCAAGGTCTGTGAAAGAGACTCGAA
output: 2.1

input: Field request: PBM binding z-score | item: CCGACTGGGGCAAAGATTACCATACTCAGTACGA
output: -0.00287

Further cases:
input: Field request: PBM binding z-score | item: TCAGACAGGTGAAGGTATCTCAGGTACGCAGTCG
output: -0.232

input: Field request: PBM binding z-score | item: AATCGGAGGACAAAGGTCAGAGCTACGCCAGTGA
output: 0.0778

input: Field request: PBM binding z-score | item: TCTTGTAGATCAACAGGAGGTTTAGAAAGATCGA
output: 0.726

###

test system: RARg:RXRa (NR concentration 270 nM, RXRa partner concentration 90 nM); experiment: PBM binding z-score (relative to random genomic background probes); higher = stronger binding; sequences stand for … in GC…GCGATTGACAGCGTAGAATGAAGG
MEASUREMENT_LABEL: PBM binding z-score
Give your answer as a number; write no unit.

input: Field request: PBM binding z-score | item: TCATATAGGTAGAAGGTGAAAGTCGGTGTGGTAA
output: 0.662

input: Field request: PBM binding z-score | item: ATCGTAAGGTCGAGGTGAGTATAGAGAAAGGGAA
output: 3

Now take the following sequence into account.
input: Field request: PBM binding z-score | item: TCTCGGAGGACACGAAATGTCAGAGCTCGACATC
output: 0.897

###

Property: PBM binding z-score; scope: individual sequences
system: RARa:RXR (NR concentration 270 nM, RXRa partner concentration 90 nM); assay: PBM binding z-score (relative to random genomic background probes); higher = stronger binding; sequences stand for … in GC…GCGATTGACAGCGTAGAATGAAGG

input: Field request: PBM binding z-score | item: TCTGCTACGTCAACGATGGTCAGCTAATCTGCTA
output: -0.492

input: Field request: PBM binding z-score | item: CCAACTGGGCCAAGGTCATTGATCAGTCAAAGCA
output: 3.22

input: Field request: PBM binding z-score | item: ACTATTAGTTGACTTAGGGCAACCTATACGACGC
output: 0.516

Further cases:
input: Field request: PBM binding z-score | item: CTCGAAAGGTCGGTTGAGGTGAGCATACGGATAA
output: 2.5

input: Field request: PBM binding z-score | item: ACTAGTTGGTCAGCTGAGGCCACACACAATTCGG
output: 1
